# system: human mGluR5a receptor (Homo sapiens, UniProt P41594)
# Construct: cDNA subcloned into pcDNA3.1(-)
# Sequence (P41594 21-1180 isoform P41594-2 limits assumed): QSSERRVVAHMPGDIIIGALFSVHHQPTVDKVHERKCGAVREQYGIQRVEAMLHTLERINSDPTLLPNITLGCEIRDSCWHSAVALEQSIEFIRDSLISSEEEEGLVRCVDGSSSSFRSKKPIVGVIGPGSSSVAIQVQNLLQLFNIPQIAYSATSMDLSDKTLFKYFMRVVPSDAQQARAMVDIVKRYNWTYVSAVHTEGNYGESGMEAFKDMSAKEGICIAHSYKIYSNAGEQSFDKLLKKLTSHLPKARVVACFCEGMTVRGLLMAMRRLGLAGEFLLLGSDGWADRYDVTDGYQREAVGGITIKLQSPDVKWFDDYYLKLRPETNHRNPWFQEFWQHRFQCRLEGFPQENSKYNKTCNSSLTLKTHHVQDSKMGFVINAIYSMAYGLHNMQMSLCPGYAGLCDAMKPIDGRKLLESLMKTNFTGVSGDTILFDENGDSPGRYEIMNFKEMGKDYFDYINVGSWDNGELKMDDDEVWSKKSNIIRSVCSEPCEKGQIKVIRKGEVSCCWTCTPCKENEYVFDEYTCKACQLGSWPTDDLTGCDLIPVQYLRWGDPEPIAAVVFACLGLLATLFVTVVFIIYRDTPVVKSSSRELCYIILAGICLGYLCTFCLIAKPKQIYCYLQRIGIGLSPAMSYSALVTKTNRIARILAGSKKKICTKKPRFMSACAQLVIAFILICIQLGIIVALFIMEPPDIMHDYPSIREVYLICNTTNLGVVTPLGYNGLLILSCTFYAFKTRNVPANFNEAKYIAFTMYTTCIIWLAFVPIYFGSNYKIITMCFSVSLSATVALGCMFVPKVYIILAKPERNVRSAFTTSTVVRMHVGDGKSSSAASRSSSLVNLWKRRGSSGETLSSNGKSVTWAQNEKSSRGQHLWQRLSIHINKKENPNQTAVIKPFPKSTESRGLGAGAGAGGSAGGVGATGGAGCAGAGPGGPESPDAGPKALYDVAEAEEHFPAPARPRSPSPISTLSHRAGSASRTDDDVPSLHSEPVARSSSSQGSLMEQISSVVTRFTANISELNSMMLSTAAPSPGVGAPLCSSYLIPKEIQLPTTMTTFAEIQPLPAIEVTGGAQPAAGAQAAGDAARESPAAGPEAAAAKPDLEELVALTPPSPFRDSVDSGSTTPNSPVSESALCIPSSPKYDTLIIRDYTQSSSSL
# assay-name: Cell-based functional Ca2+ mobilization assay (FDSS), potentiation of glutamate EC20 response
# experimental-parameters: maximum % effect in concentration-response curve, as percent of response to maximally effective glutamate

| molecule | Emax (%) |
| --- | --- |
| COc1nccc(N2CCn3nc(COc4ccccc4)cc3C2=O)n1 [Example 110] | 68% |
| O=C1c2cc(COc3ccccc3)nn2CCN1c1ccc2nonc2c1 [Example 375] | 70% |
| COCc1ccccc1N1CCn2nc(COc3ccccc3)cc2C1=O [Example 63] | 68% |
| O=C1c2cc(COc3ccccc3)nn2C(F)CN1c1ccc(F)cc1 (single isomer, unassigned) [Example 272] | 69% |
| O=C1c2cc(COc3ccccc3)nn2C(F)CN1c1ccc(F)cc1 (single isomer, unassigned) [Example 273] | 68% |
| Cc1cccc(N2CCn3nc(COc4ccc(F)cc4)cc3C2=O)c1 [Example 224] | 72% |
| O=C1c2cc(COc3ccccc3O)nn2CCN1c1ccc(F)cn1 [Example 377] | 71% |
| O=C1c2cc(COc3ccccc3)nn2CCN1c1nc2ccccc2o1 [Example 324] | 71% |
| CN(C)c1cccc(N2CCn3nc(COc4ccccc4)cc3C2=O)n1 [Example 286] | 69% |
| CC1CN(c2ccc(F)cc2)C(=O)c2cc(COc3cccc(F)c3)nn21 (single isomer, unassigned) [Example 239] | 72% |
| Cc1cccc(N2C(=O)c3cc(COc4ccccc4)nn3CC2C)c1 (centres unmarked) [Example 153] | 71% |
| Nc1cccc(N2CCn3nc(COc4ccccc4)cc3C2=O)n1 [Example 285] | 68% |
| Cc1cncc(N2CCn3nc(COc4ccccc4)cc3C2=O)n1 [Example 92] | 71% |
| CN(C)c1ccnc(N2CCn3nc(COc4ccccc4)cc3C2=O)n1 [Example 276] | 68% |

----------
# system: human mGluR5a receptor (Homo sapiens)
# Construct: cDNA subcloned into pcDNA3.1(-)
# assay-name: Cell-based functional Ca2+ mobilization assay (FDSS), potentiation of glutamate EC20 response
# experimental-parameters: HEK cells transfected with human mGluR5 (H10H or H12H); in presence of EC20 glutamate; read-out: EC50
Rule for this label: yes means EC50 is less than 0.8 µM; no means EC50 is at least 0.8 µM.

| molecule | assigned-class |
| --- | --- |
| Cc1ncc(N2CCn3nc(COc4ccccc4)cc3C2=O)cn1 | no |
| O=C1c2cc(COc3cnccn3)nn2CCN1c1ccc(F)cc1 | no |
| Cc1cnnc(N2CCn3nc(COc4ccccc4)cc3C2=O)c1 | no |
| CC1Cn2nc(COc3ccccc3)cc2C(=O)N1 (stereo not drawn) | no |
| O=C1c2cc(COc3ccccc3)nn2CC(CO)N1c1ccc(F)cc1 (stereo not drawn) [Example 268] | no |
| CNc1cccc(OCc2cc3n(n2)CCN(c2ccc(F)cc2)C3=O)n1 | no |
| Cc1ccc(N(C)C)nc1N1CCn2nc(COc3ccccc3)cc2C1=O | yes |
| N#Cc1cccc(OCc2cc3n(n2)CCN(CC2CC2)C3=O)c1 | no |
| O=C1c2cc(COc3ccccc3)nn2CCN1CC1CCC1 | yes |
| O=C1c2cc(COc3ccccn3)nn2CCN1c1ccc(F)cn1 | no |
| Cc1cccc(N2CCn3nc(COc4ccccc4)cc3C2=O)c1C | yes |
| Cc1ccc(OCc2cc3n(n2)CCN(c2ccc(F)cc2)C3=O)cc1 | yes |
| Cc1cc(OCc2cc3n(n2)CCN(c2ccc(F)cc2)C3=O)ncn1 | no |
| O=C1c2cc(COc3ccccc3)nn2CCN1c1cccnc1 | no |
| COc1cc(N2CCn3nc(COc4ccc(F)cc4)cc3C2=O)ccc1F | yes |
| O=C1c2cc(COc3ccccc3)nn2CCN1c1cccc(Cl)n1 | yes |
| O=C1c2cc(COc3ccncc3)nn2CCN1c1ccc(F)cn1 | no |
| CN(C)c1cccc(N2CCn3nc(COc4ccccc4)cc3C2=O)n1 | yes |
| O=C1c2cc(COc3ccccc3)nn2CCN1c1ccncc1F | yes |
| Cn1cc2ccc(N3CCn4nc(COc5ccccc5)cc4C3=O)cc2n1 | no |
| COc1cnc(N2CCn3nc(COc4ccccc4)cc3C2=O)cn1 | yes |
| O=C1c2cc(COc3ccncc3)nn2CCN1CC1CC1 | no |
| O=C1c2cc(COc3ccccc3)nn2CCN1c1cnc2cnccn12 | no |
| CC1CN(c2ccc(F)cn2)C(=O)c2cc(COc3ccccc3)nn21 (single isomer, unassigned) | yes |
| COCC1Cn2nc(COc3ccccc3)cc2C(=O)N1c1ccc(F)cc1 (stereo not drawn) | no |
| O=C1c2cc(COc3ccc(F)cc3)nn2CCN1CC1CC1 | yes |
| COc1ccnc(N2CCn3nc(COc4ccccc4)cc3C2=O)n1 | yes |
